For each entry below, report its pIC50 value.
- Assayed Target: Norwalk virus 3CL protease (NV3CL protease), recombinant (Norovirus, UniProt Q83883)
- Sequence (Q83883 1101-1281): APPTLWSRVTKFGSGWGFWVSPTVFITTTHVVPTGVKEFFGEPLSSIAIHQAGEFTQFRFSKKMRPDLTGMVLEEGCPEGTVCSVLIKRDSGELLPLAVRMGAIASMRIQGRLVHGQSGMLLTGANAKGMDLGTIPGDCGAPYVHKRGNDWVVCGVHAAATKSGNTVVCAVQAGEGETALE
- Protocol Details: Recombinant NV protease FRET inhibition assay (Edans-[…]-Dabcyl substrate), FIG. 4
- Protocol Conditions: 2.5 μM enzyme, 300 nM Edans-EPDFHLQGPEDLAK-Dabcyl, 30 min incubation, 30° C., pH 8.0
Give bare numbers, as −log10 of the molar value.

Examples from the recorded data:
• CC(C)C[C@H](NC(=O)N1CCOCC1)C(=O)N[C@H](C=O)CC1CCNC1=O (stereo partly shown) = 5.14
• CC(C)C[C@H](NC(=O)OCc1ccccc1)C(=O)N[C@H](C=O)C[C@@H]1CCNC1=O = 5.74
• CC(C)C[C@H](NC(=O)CNC(=O)OCc1ccccc1)C(=O)N[C@H](C=O)CC1CCNC1=O (stereo partly shown) = 5.84

Returns the measured pIC50 for the input compound. Input: CCCC[C@H](NC(=O)CNC(=O)OCc1ccccc1)C(=O)N[C@H](C=O)CC1CCNC1=O (stereo partly shown)
6.06

###

For each entry below, report its pIC50 value.
- Assayed Target: MNV-1 3CLpro (codon-optimized, full-length, recombinant) (Norovirus, UniProt Q80J95)
- Sequence (Q80J95 995-1177): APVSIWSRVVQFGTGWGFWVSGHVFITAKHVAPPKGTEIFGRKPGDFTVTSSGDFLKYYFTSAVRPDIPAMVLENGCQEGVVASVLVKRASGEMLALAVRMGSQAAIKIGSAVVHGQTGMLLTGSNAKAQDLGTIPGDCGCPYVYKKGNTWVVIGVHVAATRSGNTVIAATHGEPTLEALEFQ
- Protocol Details: biochemical
Answers are plain numbers, as −log10 of the molar value.

- CC(C)C[C@H](NC(=O)OCc1ccccc1)C(=O)N[C@@H](CC1CCNC1=O)C(O)S(=O)(=O)O (some centres unmarked): 5.95

Returns the measured pIC50 for the input molecule. Input: CC(C)C[C@H](NC(=O)OCc1ccccc1)C(=O)N[C@H](C=O)C[C@@H]1CCNC1=O
5.87

###

- System: MNV-1
- Protocol Details: Cell-based screening, MNV-1 in RAW267.4 cells (Example 2)
- Set-up: species or system murine norovirus
- Protocol Conditions: Norwalk virus, RAW267.4, read-out: Inhibition [ED50 (μM)] against various viruses: Calicivirus, MNV-1
Value Kind: EC50 (µM)
One number for each entry, in µM.

Identify the measured EC50 of CC(C)C[C@H](NC(=O)OCc1ccccc1)C(=O)N[C@@H](CC1CCNC1=O)C(=O)C(=O)NC(C)C (stereo partly shown) for MNV-1.
85

###

- Tested on: 229E
- Protocol Details: Cell-based screening, 229E in MRC-5 cells (Example 2)
- Protocol Conditions: Human coronavirus 229E, MRC5; MRC-5 cells; read-out: Inhibition [ED50 (μM)] against various viruses: Coronavirus, 229E
For each entry below, report its EC50 value.
Answers are plain numbers, in µM.

- CC(C)C[C@H](NC(=O)OCc1ccccc1)C(=O)N[C@@H](CC1CCNC1=O)C(O)S(=O)(=O)O (some centres unmarked) [GC376]: 0.3

Returns the measured EC50 for the input molecule. Input: CC(C)C[C@H](NC(=O)OCc1ccccc1)C(=O)N[C@H](C=O)C[C@@H]1CCNC1=O [GC373]
0.2

###

- Test system: murine norovirus-1 (MNV-1)
- Protocol Details: MNV-1 replication in RAW267.4 cells, TCID50 (Example 1)
- Format: cell-based
- Protocol Conditions: Norwalk virus, MOI 2, TCID50 assay, read-out: ED50, replication of murine norovirus (MNV)
Value Kind: EC50 (µM)
Numbers only, in µM.

For each listed entry, give its EC50.
1. CC(C)C[C@H](NC(=O)CNC(=O)OCc1ccccc1)C(=O)N[C@H](C=O)CC1CCNC1=O (some centres unmarked) [Inhibitor E]
2. CC(C)C[C@H](NC(=O)OCc1ccccc1)C(=O)N[C@H](C=O)C[C@@H]1CCNC1=O [GC373]

[20.3, 5.5]

Provenance of the data: patent US9474759B2
